# Test system: Calu-3
# assaySummary: cell viability relative to DMSO; higher = less toxic
# conditionContext: 72 h; 100 nM
outcomeMeasure: cell viability (%)

structureSmilesString: O=C1CN=C(c2cccc(Br)c2)c2oc3ccccc3c2N1
observedMeasurement: 112

structureSmilesString: NC/C(=C/F)CCc1ccc(F)cc1
observedMeasurement: 102

structureSmilesString: COc1ccccc1N1CCN(CCCCN2C(=O)c3ccccc3C2=O)CC1
observedMeasurement: 107

structureSmilesString: CCn1c(-c2nonc2N)nc2cncc(CNC3CCNCC3)c21
observedMeasurement: 102

structureSmilesString: COC(=O)[C@@H]1C[C@H](OC(C)=O)C(=O)[C@H]2[C@@]1(C)CC[C@H]1C(=O)O[C@H](c3ccoc3)C[C@]21C
observedMeasurement: 97.5
